Where do the numbers come from? From patent US6727263B2.

Target: human 5-HT1A receptors (Homo sapiens, UniProt P08908)
Construct: expressed in transfected cells; host or cells: HeLa cells (HA7), used as cell homogenate
Sequence (P08908 1-422): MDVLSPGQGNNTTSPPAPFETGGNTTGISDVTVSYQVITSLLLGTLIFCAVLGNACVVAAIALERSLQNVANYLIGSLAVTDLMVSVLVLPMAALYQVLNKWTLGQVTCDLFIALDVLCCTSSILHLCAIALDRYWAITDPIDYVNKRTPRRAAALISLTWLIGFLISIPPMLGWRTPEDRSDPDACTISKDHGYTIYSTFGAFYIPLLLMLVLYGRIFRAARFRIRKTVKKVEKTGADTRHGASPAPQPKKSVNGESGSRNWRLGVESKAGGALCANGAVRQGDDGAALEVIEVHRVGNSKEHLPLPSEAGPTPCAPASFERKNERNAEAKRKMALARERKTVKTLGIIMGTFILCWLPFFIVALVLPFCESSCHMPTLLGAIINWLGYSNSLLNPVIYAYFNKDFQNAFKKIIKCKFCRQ
Test: Inhibition of 3H-5-CT binding to human 5-HT1A receptors
Reported IC50 values for a set of molecules
Express it in nM; write the number only.

Below, 2 molecules whose answers are already recorded.
CC1(C)Cc2cccc(C3CCN(CCc4c[nH]c5cc(Cl)ccc45)CC3)c2O1 | 6.1
Cc1cc2c(c(C3CCN(CCc4c[nH]c5cc(Cl)ccc45)CC3)c1)OC(C)(C)C2.O=C(O)/C=C/C(=O)O [Compound 1d, fumarate] | 55

Next molecule, please.
Q: Quick check: IC50 of Clc1cc2c(c(N3CCN(CCc4c[nH]c5cc(Cl)ccc45)CC3)c1)OCCO2.O=C(O)C(=O)O [Compound 1l, oxalate] ?
A: 12

###

Reported pIC50 values for a set of compounds
Biological target: human 5-HT1A receptors (Homo sapiens, UniProt P08908)
Construct: expressed in transfected cells; host or cells: HeLa cells (HA7), used as cell homogenate
Sequence (P08908 1-422): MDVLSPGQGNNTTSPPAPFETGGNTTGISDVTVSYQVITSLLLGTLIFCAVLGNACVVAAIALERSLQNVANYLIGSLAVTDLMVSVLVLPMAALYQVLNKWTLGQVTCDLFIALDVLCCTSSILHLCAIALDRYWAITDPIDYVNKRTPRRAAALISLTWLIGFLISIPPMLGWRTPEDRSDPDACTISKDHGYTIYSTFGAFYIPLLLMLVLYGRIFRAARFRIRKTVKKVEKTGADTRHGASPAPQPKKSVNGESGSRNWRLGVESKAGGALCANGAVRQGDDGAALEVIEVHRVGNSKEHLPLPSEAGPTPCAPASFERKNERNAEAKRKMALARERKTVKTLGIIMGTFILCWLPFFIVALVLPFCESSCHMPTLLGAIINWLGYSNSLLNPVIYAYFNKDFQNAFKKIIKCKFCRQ
Assay: Inhibition of 3H-5-CT binding to human 5-HT1A receptors
The quantity pIC50 is defined as the negative base-10 logarithm of the molar concentration.

Below, 3 compounds whose answers are already recorded.
Clc1ccc2c(CCN3CCN(c4c(Cl)ccc5c4OCCO5)CC3)c[nH]c2c1.O=C(O)C(=O)O [Compound 1m, oxalate] | 7.00
COc1ccc2[nH]cc(CCN3CCN(c4cccc5c4OCCO5)CC3)c2c1 [Compound 1i] | 8.16
Clc1ccc2c(CCN3CC=C(c4cccc5c4OCCO5)CC3)c[nH]c2c1.O=C(O)C(=O)O [Compound 1v, oxalate] | 9.09

Q: Quick check: pIC50 of Clc1ccc2[nH]cc(CCN3CCN(c4cccc5c4OCC5)CC3)c2c1.O=C(O)C(=O)O [Compound 1n, oxalate] ?
A: 8.09
